# Tested on: SK-MEL-5 melanoma
# ASSAY OVERVIEW: NCI tumour cell line growth inhibition, 48 h
RESULT TYPE: TGI

For the compound C/C=C(/COC(C)=O)C(=O)OC1C=C(C=O)C(C)(C)C=C1C (centres undefined) , what TGI is on record?
> 100 µM

Suppose we examine the compound O=C(NN1C(=O)CSC12CCCC2)c1[nH]c2ccc(Br)cc2c1-c1ccccc1 ; what TGI value has been reported?
> 100 µM

State the recorded TGI for this entry: CCN(C(=S)N[C@H](C(=O)N[C@@H](C)C(=O)OC)C(C)C)c1ccccc1
> 100 µM

What does the record list as TGI for O=c1ccn(CC2(CO)CC(Cc3ccccc3)C2)c(=O)[nH]1 (centres undefined) ?
> 100 µM

Data request, read-out TGI, for O=C(c1cc(Cl)ccc1Cl)N1CCN(C(=O)c2cc(Cl)ccc2Cl)CC1
> 100 µM

GET /values?readout=TGI&item= COc1ccc2nc3cc([N+](=O)[O-])ccc3c(Nc3ccc(S(=O)(=O)NC(C)=O)cc3)c2c1
> 100 µM

So what does the record say about TGI for COc1ccccc1Cc1nc(-c2ccccc2)nn(C2OC(COC(C)=O)C(OC(C)=O)C(OC(C)=O)C2OC(C)=O)c1=S (centres undefined) ?
26.1 µM

Value lookup for TGI; key = CCOP(=O)(OCC)C1CC(n2cc(C)c(=O)[nH]c2=O)OC1CO (centres undefined)
> 100 µM

I am curious: what TGI value has been reported for COc1ccc(C(=O)c2cc3c(N)c(C(=O)Nc4cccc5ccccc45)sc3nc2C)cc1 ?
1.4 µM

----------
# Test system: DU-145 prostate
# ASSAY OVERVIEW: NCI tumour cell line growth inhibition, 48 h
RESULT TYPE: TGI

What reported TGI corresponds to COc1ccc(NC(C)=O)cc1N1C(=O)/C(=C\c2cc(OC)c(OC)c(OC)c2)SC1c1ccccc1 (centres undefined) on DU-145 prostate?
> 100 µM

// fetch DU-145 prostate TGI for CC(C)(O)CC(=O)NCCn1ccc2ncnc(Nc3ccc(Oc4cccc(C(F)(F)F)c4)c(Cl)c3)c21
> 10 µM

Enter reported TGI observed with DU-145 prostate for CS[C@]12C(=O)C[C@@]3(C)[C@@H](CC[C@]3(O)C(=O)CO)[C@@H]1CCC1=CC(=O)CC[C@@]12C
> 100 µM

Fill in the recorded TGI for this molecule, with DU-145 prostate as test system: O=C(NN1C(=O)CSC12CCCC2)c1[nH]c2ccc(Br)cc2c1-c1ccccc1
> 100 µM

Please tell me: TGI of C=C1C(=O)OC2/C=C(/C)C(OC(C)=O)CC(O)/C(C)=C\C(OC(=O)/C(C)=C\C)C12 (centres undefined) , system DU-145 prostate?
> 100 µM

For DU-145 prostate, provide TGI of NC(=O)c1c(NC(=O)c2ccc3c(c2)OCO3)sc2c1CCC(=O)C2 please.
> 100 µM

What value of TGI on DU-145 prostate does NCCCN(CCCN)CCN(CCN(CCCN)CCCN)CCN(CCCN)CCCN have?
> 100 µM

Look up TGI with DU-145 prostate for this molecule: CC1=C(CO)C(=O)O[C@@H]([C@@H](C)[C@H]2CC[C@H]3[C@@H]4C[C@@H](O)[C@@]5(O)CC=CC(=O)[C@]5(C)[C@H]4CC[C@]23C)C1
> 100 µM

Identify the measured TGI of COC(=O)c1c(O)ccc2c1c1c(n2Cc2cccc(C)c2)C(=O)c2ccccc2C1=O for DU-145 prostate.
32.6 µM

Form field - read-out: TGI; system: DU-145 prostate; submitted item: COc1ccc(-n2c(=O)n(C)c(=O)n2-c2ccc(OC)cc2)cc1
> 100 µM

Form field - read-out: TGI; system: DU-145 prostate; submitted item: O=C(c1cc(Cl)ccc1Cl)N1CCN(C(=O)c2cc(Cl)ccc2Cl)CC1
> 100 µM

Find the measured TGI: item O=c1[nH]nc(-c2ccccc2)n1/N=C/c1cccnc1 , target or system DU-145 prostate.
> 100 µM

Please provide the recorded TGI for CCOC(=O)c1nc2ccc(C(F)(F)F)cc2nc1Oc1cc(OC)cc(OC)c1 , tested on DU-145 prostate.
> 100 µM

Missing value: TGI, DU-145 prostate, entry COc1cc(C(=O)NC2CCN(C)CC2)c(F)cc1Nc1ncc2c(n1)N(C1CCCC1)CC(F)(F)C(=O)N2C . Fill in?
11.2 µM

Missing value: TGI, DU-145 prostate, entry Cc1ccc(S(=O)(=O)Nc2cccc3[nH]c(C(F)(F)F)nc23)cc1 . Fill in?
> 39.9 µM

Quick check: TGI on DU-145 prostate, item O=C1/C(=N\S(=O)(=O)c2ccccc2)C([n+]2ccc(Cc3ccccc3)cc2)=C([O-])c2ccccc21 ?
2.89 µM

Test system DU-145 prostate; read-out TGI; what value for COC1OC2COC1(OC)C1OC(C)(C)OC21 (centres undefined) ?
> 100 µM

Find TGI (DU-145 prostate) for the entry CN(C)c1ccc2c(c1)OC(N)=C(C#N)C2c1ccc2c(c1)CCO2 (centres undefined)
> 100 µM

What measured TGI is associated with CC1=NN(c2nc(N)nc(/C(C#N)=C/c3cccn3-c3cc(Cl)cc(Cl)c3)n2)C(C)(C)C1 on DU-145 prostate?
> 100 µM

Form field - read-out: TGI; system: DU-145 prostate; submitted item: CCc1ccc(NC(=O)COC(=O)c2cc([N+](=O)[O-])ccc2Sc2nnnn2C)cc1
28.2 µM

Test system DU-145 prostate; read-out TGI; what value for COc1ccc(C)cc1Nc1nnc(-c2ccccc2N)s1 ?
> 100 µM

Item CCOC(=O)c1cc2c3c(c(C(C)=O)c(O)c2[nH]1)N(CC(C)CC)CC3 (centres undefined) with DU-145 prostate - TGI?
> 100 µM

# returns recorded TGI (system: DU-145 prostate) for COc1ccc(C2SC(C)C(=O)N2NC(=O)C(O)c2ccccc2)cc1OC (centres undefined)
> 100 µM

DU-145 prostate / TGI / O=c1nc2oc3ccc4ccccc4c3cc-2s1 : value?
> 100 µM

Request - read-out TGI | tested on DU-145 prostate | molecule Cc1ccc(CNc2c3ccccc3nc3cc(NC(=O)CCN4CCCC4)ccc23)cc1
1.66 µM

Form: Entry = CCCCN(CCCC)c1ccc(C(=N)c2ccc(N(CCCC)CCCC)cc2)cc1 | System = DU-145 prostate | TGI = ____
1.79 µM

Write down the reported TGI of Oc1c([Si](c2ccccc2)(c2ccccc2)c2ccccc2)cc2ccccc2c1-c1c(O)c([Si](c2ccccc2)(c2ccccc2)c2ccccc2)cc2ccccc12 , test system: DU-145 prostate.
> 100 µM

# value lookup — system DU-145 prostate, readout TGI, item C[CH2][Sn]([CH2]C)([O]C(=O)C(OC(C)=O)c1ccccc1)[O]C(=O)C(OC(C)=O)c1ccccc1 (centres undefined)
> 100 µM

Form: Entry = C=C(C)C(O)C(O)c1c(OC)ccc2ccc(=O)oc12 (centres undefined) | System = DU-145 prostate | TGI = ____
> 100 µM

Provide the documented TGI with DU-145 prostate as the system for COc1ccc(C(=O)c2cc3c(N)c(C(=O)Nc4cccc5ccccc45)sc3nc2C)cc1
> 50 µM

Look up TGI with DU-145 prostate for this molecule: CCNC(=O)c1cc(/C=C/c2ccc([N+](=O)[O-])o2)nc2ccccc12
> 100 µM

// map COc1cc(C2c3cc4c(cc3OC(NNC(N)=O)C2C)OCO4)cc(OC)c1O (centres undefined) to recorded TGI (system: DU-145 prostate)
33.7 µM

For DU-145 prostate, provide TGI of C1CN(SSN2CCOCC2)CCO1 please.
> 100 µM

Which measured TGI belongs to OC(CCNCc1ccccc1)c1ccc2ccccc2c1 (centres undefined) , tested on DU-145 prostate?
39.6 µM

Find the measured TGI: item CCOC(=O)c1cnc2oc3ccc(O)cc3c2c1-c1ccccc1 , target or system DU-145 prostate.
> 100 µM

Identify the measured TGI of Cc1c2c(nn1C)CSCc1cc(n(C)n1)CSc1cc(c3ccccc3c1)OCCCc1c(C(=O)O)n(C)c3c-2c(Cl)ccc13 for DU-145 prostate.
15.9 µM

State its TGI on DU-145 prostate: O=C(Cn1c(C(=O)/C=C/c2cccs2)nc2ccccc21)c1ccc(Cl)cc1
> 100 µM

Request: TGI, test system DU-145 prostate, entry C=C(CO[Si](C)(C)C(C)(C)C)C(C)=O
> 100 µM

Hello, I am looking for reported TGI with DU-145 prostate for CC1CC/C(=C\c2ccc(Cl)cc2)C2OC(N)=C(C#N)C(c3ccc(Cl)cc3)=C12 (centres undefined) . Could you help?
34.5 µM
